Target: Glucocorticoid receptor (Homo sapiens) (UniProt P04150)
Sequence (P04150 whole entry, looked up): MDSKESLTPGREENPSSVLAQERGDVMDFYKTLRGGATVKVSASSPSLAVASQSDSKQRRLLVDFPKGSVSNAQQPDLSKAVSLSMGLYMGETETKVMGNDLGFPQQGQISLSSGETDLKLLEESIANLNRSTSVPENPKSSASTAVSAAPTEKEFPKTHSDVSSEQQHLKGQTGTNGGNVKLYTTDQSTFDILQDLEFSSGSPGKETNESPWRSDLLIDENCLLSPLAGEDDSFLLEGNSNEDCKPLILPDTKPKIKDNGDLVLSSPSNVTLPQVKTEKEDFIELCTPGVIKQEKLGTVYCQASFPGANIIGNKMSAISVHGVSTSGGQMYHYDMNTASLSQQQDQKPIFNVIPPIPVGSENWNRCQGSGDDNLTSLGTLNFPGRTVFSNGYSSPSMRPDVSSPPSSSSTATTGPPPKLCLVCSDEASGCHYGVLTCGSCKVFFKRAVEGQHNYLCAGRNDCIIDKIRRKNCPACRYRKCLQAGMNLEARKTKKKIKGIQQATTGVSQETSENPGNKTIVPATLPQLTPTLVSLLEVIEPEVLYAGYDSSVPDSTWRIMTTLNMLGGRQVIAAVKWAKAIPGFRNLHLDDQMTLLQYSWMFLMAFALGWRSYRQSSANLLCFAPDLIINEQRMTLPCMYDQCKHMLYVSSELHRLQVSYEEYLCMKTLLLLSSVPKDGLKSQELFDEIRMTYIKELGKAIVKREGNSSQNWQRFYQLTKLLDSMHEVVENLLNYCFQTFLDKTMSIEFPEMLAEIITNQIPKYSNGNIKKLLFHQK
Experiment: GR-GFP Redistribution (AID 450); also: potency is read from the fitted curve at half-maximal effect
Conditions: U2OS GR-GFP nuclear translocation, laser cytometry, 2 h
The source made the active and inactive calls.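 The calls were made as follows: active = compounds whose dose series gives a full or clear partial fitted curve of increased nuclear translocation; inconclusive = weak partial curve or effect only at the top dose; inactive = no dose-dependent translocation response.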
READOUT NAME: Potency

> print(dat)
                                 smiles.repr        recorded.value
 1  Cc1noc(C)c1-c1ccc2ncnc(Nc3ccc(F)cc3)c2c1    > 46 µM (inactive)
 2  Cn1c(=O)c(-c2ccc(Cl)cc2)nc2cnc(Nc3ccccc3)nc21  > 9.22 µM (inactive)
 3              CNc1ncnc2ccc(-c3ccccc3C)cc12    > 46 µM (inactive)
 4  CS(=O)(=O)Nc1cccc(-c2ccc3ncnc(NCCN4CCOCC4)c3c2)c1    > 46 µM (inactive)
 5  COc1ccc(-n2c(=O)c(-c3cccs3)nc3cnc(N(C)C)nc32)cc1  > 9.22 µM (inactive)
 6           COc1cccc(Cn2c(=O)cnc3cncnc32)c1  > 9.22 µM (inactive)
 7   CN(Cc1ccco1)c1ncnc2ccc(-c3ccccc3Cl)cc12    > 46 µM (inactive)
 8  CN(C)c1ncc2nc(-c3cccs3)c(=O)n(CCC#N)c2n1  > 9.22 µM (inactive)
 9           Cc1cccc(CNc2ccnc(-c3ccoc3)n2)c1    > 46 µM (inactive)
10             CNc1nc(-c2ccccc2Cl)nc2ccccc12    > 46 µM (inactive)
11            CN(Cc1ccco1)c1cc(-c2ccoc2)ncn1    > 46 µM (inactive)
12  COc1ccc(-n2c(=O)c(-c3ccccc3)nc3cnc(N4CCNCC4)nc32)cc1  > 9.22 µM (inactive)
13             CN1CCN(c2cc(-c3ccoc3)ncn2)CC1    > 46 µM (inactive)
14     CN(C)C(=O)c1ccc(-c2cncnc2N2CCNCC2)cc1    > 46 µM (inactive)
15  CCNc1ncc2nc(-c3cn(C)c4ccccc34)c(=O)n(Cc3cccc(OC)c3)c2n1  > 9.22 µM (inactive)

---

Target: DNA repair nuclease/redox regulator APEX1 (Homo sapiens) (UniProt P27695)
Sequence (P27695 whole entry, looked up): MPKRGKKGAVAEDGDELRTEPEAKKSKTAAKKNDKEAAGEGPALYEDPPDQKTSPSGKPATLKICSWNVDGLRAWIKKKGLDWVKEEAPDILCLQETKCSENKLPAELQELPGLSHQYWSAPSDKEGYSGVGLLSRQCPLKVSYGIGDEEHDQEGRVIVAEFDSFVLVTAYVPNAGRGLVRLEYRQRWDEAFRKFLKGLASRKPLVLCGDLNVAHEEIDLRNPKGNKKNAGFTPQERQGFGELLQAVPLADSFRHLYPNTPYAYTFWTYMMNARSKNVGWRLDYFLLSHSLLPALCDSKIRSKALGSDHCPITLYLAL
Assay: qHTS Validation Assay for Inhibitors of the Human Apurinic/apyrimidinic Endonuclease 1 (APE1) (AID 1705)
Settings: purified APE1 endonuclease activity, fluorescence, titration; series mostly up to 57.1 µM
Inconclusive results are not listed. Activity calls are given as the source filed them. Calls follow the shape of the dose curve; as a rule, active = well fitted inhibition curve with a large enough effect; inconclusive = small, poorly fitted or top-dose-only effect; inactive = flat fitted curve, though single readings scatter.
Outcomes: 1 (yes) (active), 0 (no) (inactive)

> print(dat)
                                   compound    group
1  C[C@H]1CC2[C@@H]3CCC4=CC(=O)C=C[C@]4(C)[C@@]3(F)[C@@H](O)C[C@]2(C)[C@@]1(O)C(=O)CO (stereo not given in full)  1 (yes)
2  CSc1nc(N)c2ncn([C@@H]3O[C@H](COP(=O)(O)OP(=O)(O)OP(=O)(O)O)[C@H](O)[C@H]3O)c2n1   0 (no)
3  OC[C@H]1O[C@@H](n2cnc3c(NC4CCCC4)ncnc32)[C@H](O)[C@H]1O   0 (no)
4          O=C(Cc1ccc(Cl)c(Cl)c1)OCCN1CCCC1   0 (no)
5  OC[C@H]1O[C@@H](n2cnc3c(N[C@H]4CC5CCC4C5)ncnc32)[C@H](O)[C@@H]1O (stereo not given in full)   0 (no)

---

Experiment: qHTS drug screen for cell cycle checkpoint inhibitors in PARPi-resistant BRCA-mutant ovarian cancer cell lines. (AID 1963452)
Conditions: PEO1/OlaR viability, CellTiter-Glo luminescence, 96 h; measured here: PEO4 Z-AUC; stronger effect = lower value
Description: Women's Malignancies Branch, Center for Cancer Research (CCR), National Cancer Institute (NCI), National Institutes of Health (NIH), Bethesda, MD Poly (ADP-ribose) polymerase inhibitors (PARPis) have changed the treatment paradigm in breast cancer gene (BRCA) - mutant high-grade serous ovarian carcinoma (HGSC). […] 6; Detection; Luminescence, PHERAstar (BMG Labtech) plate reader. […] 6. Luminescence readings were taken using PHERAstar (BMG Labtech). […]
The following molecules are shown together with reported Z-AUC values.
READOUT NAME: Z-AUC

> print(dat)
                                smiles.repr  recorded.value
1  CN(C)c1cc(NC(=O)CNC(C)(C)C)c(O)c2c1C[C@H]1C[C@H]3[C@H](N(C)C)C(=O)C(C(N)=O)=C(O)[C@]3(O)C(=O)C1=C2O            1.05
2   O=C(NO)c1ccc(C2=Nc3ccccc3Oc3ccccc32)cc1            -1.1
3  NS(=O)(=O)c1ccc(NC(=S)N2CCN(C/C=C/c3ccccc3)CC2)cc1         -0.0827
4  COc1ccc(C(=O)N2CCN(C(=O)/C=C/c3ccc(Br)cc3)CC2)cc1            1.05
5  COc1ccc2c(c1)C(c1ccc(F)cc1)=C(CN1CCCC1)CO2          0.0293

---

Biological target: Dual specificity protein kinase CLK4 (Homo sapiens) (UniProt Q9HAZ1)
Sequence (Q9HAZ1 whole entry, looked up): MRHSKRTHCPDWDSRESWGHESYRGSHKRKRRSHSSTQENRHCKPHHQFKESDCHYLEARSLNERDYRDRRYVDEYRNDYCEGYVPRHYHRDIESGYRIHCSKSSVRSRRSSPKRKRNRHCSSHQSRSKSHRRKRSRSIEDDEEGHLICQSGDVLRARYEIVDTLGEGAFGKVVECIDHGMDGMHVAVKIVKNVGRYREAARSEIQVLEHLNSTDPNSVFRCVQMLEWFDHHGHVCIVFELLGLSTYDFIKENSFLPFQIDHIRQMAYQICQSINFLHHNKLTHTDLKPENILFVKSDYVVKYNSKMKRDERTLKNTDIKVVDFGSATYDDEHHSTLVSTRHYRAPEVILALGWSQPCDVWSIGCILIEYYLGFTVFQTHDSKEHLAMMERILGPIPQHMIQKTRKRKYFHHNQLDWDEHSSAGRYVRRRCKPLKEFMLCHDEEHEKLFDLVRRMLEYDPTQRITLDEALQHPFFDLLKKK
Assay: qHTS Assay for Inhibitors of CDC-like Kinase 4 (ADP-Glo Assay) (AID 1771); also: nearly all actives have a fitted effect of over 70% in size; also: potency is read from the fitted curve at half-maximal effect
Details: recombinant CLK4, ADP-Glo luminescence; series mostly up to 80 µM
Inconclusive results are not listed. The source made the active and inactive calls. Calls come from the whole dose curve; as a rule, active = well fitted inhibition curve with a large enough effect; inconclusive = small, poorly fitted or top-dose-only effect; inactive = flat fitted curve, though single readings scatter.
READOUT NAME: Potency

> print(dat)
                                 smiles.repr  readout.name    recorded.value
 1     Cc1noc(C)c1-c1ccc2ncnc(NC3CCNCC3)c2c1       Potency  25.1 µM (active)
 2           COCCNc1ncnc2ccc(-c3ccccc3C)cc12       Potency  8.91 µM (active)
 3  CN(C)c1ncc2nc(-c3cccs3)c(=O)n(CCC#N)c2n1       Potency          inactive
 4  O=c1c(-c2ccc(F)cc2)nc2cnc(N3CCNCC3)nc2n1-c1ccccc1       Potency          inactive
 5              CC(=O)NCCNc1ncncc1-c1ccccc1C       Potency          inactive
 6  COc1cccc(Cn2c(=O)c(-c3ccccc3)nc3cnc(N4CCNCC4)nc32)c1       Potency          inactive
 7  CN1CCN(c2ncc3nc(-c4ccc(Cl)cc4)c(=O)n(-c4ccccc4)c3n2)CC1       Potency          inactive
 8  COc1cccc(Nc2ncc3nc(C)c(=O)n(C4CC4)c3n2)c1       Potency  11.2 µM (active)
 9  COc1ccc(-c2nc3cnc(Nc4ccccc4)nc3n(Cc3cccs3)c2=O)cc1       Potency          inactive
10  CN1CCN(c2nc(-c3ccc4c(c3)OCO4)nc3ccccc23)CC1       Potency  15.8 µM (active)
11  CN1CCN(c2ncc3nc(-c4cc(F)cc(F)c4)c(=O)n(CCc4ccccc4)c3n2)CC1       Potency          inactive
12  COc1ccccc1CCn1c(=O)c(-c2cccc(F)c2)nc2cncnc21       Potency          inactive
13                 O=c1cnc2cncnc2n1Cc1ccccc1       Potency          inactive

---

Assay: Stat Signaling Pathway (AID 446);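 also: ME-180 cervical cancer cells given 40 pM IL-6 alongside compound; SIE-controlled beta-lactamase reporter measured as 460/530 nm FRET emission ratio; % is scaled to controls: 0 for no effect and ±100 for the full control effect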
Settings: ME-180 (cervical carcinoma) SIE beta-lactamase reporter, IL-6 stimulated, 5 h; at 7.69 µM (top of the series) unless noted
Records with an inconclusive call do not appear. Calls of active or inactive are those of the source. The call rests on the fitted dose curve; in most records, active means well fitted curve in either direction with a large enough effect (not every such curve was filed as active); inconclusive means small, poorly fitted or top-dose-only effect, or another doubt; inactive means flat fitted curve, though single readings scatter.
READOUT NAME: activity, negative = inhibition

> print(dat)
                                 smiles.repr                     readout.name                recorded.value
 1  O=C(c1cccc(F)c1)N1CCC2(CC1)CN(c1cccc(-c3ccccc3)c1)C2  activity, negative = inhibition             -13.4% (inactive)
 2           Cn1c(=O)cnc2cnc(OCc3ccccc3)nc21  activity, negative = inhibition             -10.5% (inactive)
 3  CN(C)C(=O)c1ccc(-c2cc(NCc3cccnc3)ncn2)cc1  activity, negative = inhibition              21.7% (inactive)
 4  O=C(c1cccc(F)c1)N1CCC2(CC1)CCN(c1cccc(-c3ccccc3)c1)CC2  activity, negative = inhibition             -10.4% (inactive)
 5                   N=C1Sc2ccccc2C2=NCCCN12  activity, negative = inhibition  -18.9% [at 38 µM] (inactive)
 6     O=C(c1csnn1)N1CCC2(CC1)CN(c1ccccc1)C2  activity, negative = inhibition              4.17% (inactive)
 7  CC(C)NC(=O)N1CCC2(CC1)CCN(C(=O)c1cccc(F)c1)CC2  activity, negative = inhibition              7.13% (inactive)
 8          CN(C)Cc1ccccc1-c1cncnc1Nc1ccccc1  activity, negative = inhibition              13.5% (inactive)
 9  COc1ccc(-n2c(=O)cnc3cnc(N4CCOCC4)nc32)cc1  activity, negative = inhibition             -10.3% (inactive)
10  CN(C)Cc1ccccc1-c1nc(NCc2ccccc2)c2ccccc2n1  activity, negative = inhibition              4.49% (inactive)
11  Cn1cccc1C(=O)N1CCC[C@@]2(CCN(Cc3cc(C(F)(F)F)cc(C(F)(F)F)c3)C2)C1  activity, negative = inhibition              8.87% (inactive)
12  COc1ccc(NC(=O)N2CC3(CCN(C(C)=O)CC3)C2)cc1  activity, negative = inhibition            -0.267% (inactive)
13              N=C(N)SCCc1cccc(CCSC(=N)N)c1  activity, negative = inhibition  0.643% [at 38 µM] (inactive)
14     O=C(Nc1cccc(F)c1)N1CC[C@@]2(CCCNC2)C1  activity, negative = inhibition            -0.756% (inactive)
15  CN(C)c1ccc(-c2ccc3ncnc(N4CCNCC4)c3c2)cc1  activity, negative = inhibition               5.8% (inactive)
16        O=C(Nc1cccc(F)c1)N1CCC2(CCNCC2)CC1  activity, negative = inhibition              -4.9% (inactive)
17               COc1ccccc1-c1cncnc1-n1ccnc1  activity, negative = inhibition              10.2% (inactive)
